Target: T1, histidine-tagged human Siglec-7 (NovoProtein) (human, UniProt Q9Y286 19-353)
T1 construct: Bought protein; also called recombinant human Siglec-7; recombinant Siglec-7; not shown: histidine tag
T1 sequence (Q9Y286 19-353 limits assumed): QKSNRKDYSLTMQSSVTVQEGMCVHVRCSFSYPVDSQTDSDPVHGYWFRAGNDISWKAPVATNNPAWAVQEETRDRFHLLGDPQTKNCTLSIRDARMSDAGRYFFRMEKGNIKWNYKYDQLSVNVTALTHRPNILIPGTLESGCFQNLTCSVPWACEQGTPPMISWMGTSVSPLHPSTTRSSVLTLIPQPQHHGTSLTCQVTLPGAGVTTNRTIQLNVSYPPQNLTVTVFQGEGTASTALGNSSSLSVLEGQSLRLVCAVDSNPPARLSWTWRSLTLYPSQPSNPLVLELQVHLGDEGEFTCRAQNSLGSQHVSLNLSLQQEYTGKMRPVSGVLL
Assay: BLI, antibody captured
attribute_measured: fold improvement over S7AB-H8 (fold)
Report as a plain number; the unit fold is understood.

- binder: "S7AB-H8.2 (antibody, V domains shown) VH: QVQLVQSGAEVKKPGASVKVSCKASGYAFTMAWMNWVRQAPGQGLEWIGRIFPGYGHTNYAQKFQGRATLTEDTSTSTAYMELSSLRSEDTAVYYCARDYSDYYFDYWGQGTLVTVSS VL: DIQMTQSPSSLSASVGDRVTITCRGSQDINTYLNWYQQKPGKAPKLLIYYTSRLHSGVPSRFSGSGSGTDYTLTISSLQPEDFATYYCQQGNLLPWTFGQGTKLEIK"
  recorded_number: 4.6
- binder: "S7AB-H8.28 (antibody, V domains shown) VH: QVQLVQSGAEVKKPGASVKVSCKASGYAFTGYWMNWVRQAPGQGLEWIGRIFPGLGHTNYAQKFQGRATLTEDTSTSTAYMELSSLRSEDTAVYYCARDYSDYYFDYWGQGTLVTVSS VL: DIQMTQSPSSLSASVGDRVTITCRASQDANTYLNWYQQKPGKAPKLLIYYTSRLHSGVPSRFSGSGSGTDYTLTISSLQPEDFATYYCQQGNLLPWTFGQGTKLEIK"
  recorded_number: 6.6

Let us move to another entry and its fold improvement over S7AB-H8.
**Query** Hello, please tell me recorded fold improvement over S7AB-H8 for this one: S7AB-H8.3 (antibody, V domains shown) VH: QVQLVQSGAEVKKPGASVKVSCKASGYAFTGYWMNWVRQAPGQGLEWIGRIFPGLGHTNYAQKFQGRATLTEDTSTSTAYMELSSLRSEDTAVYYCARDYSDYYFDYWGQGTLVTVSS VL: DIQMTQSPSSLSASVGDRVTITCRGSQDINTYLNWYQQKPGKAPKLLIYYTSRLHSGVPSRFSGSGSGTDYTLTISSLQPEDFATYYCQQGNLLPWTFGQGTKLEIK
**Result** 3.6
